As shown below, each of these binders has a reported TCR Mut RLU/WT RLU value.
Molecular target: T1, KRAS G13D (G13D-RT6) peptide on HLA-DQA1*05:01 / HLA-DQB1*03:01 (human)
T1 chain: YKLVVVGAGDVGKSAL
Test: NFAT-luciferase; Jurkat-NFAT-Luc with the TCR and Lovo-DPA0301:DPB0501 cells loaded with G13D-RT6; against wild-type B8.2.4 TCR; full-length, on cells
Settings: chains Valpha:Vbeta
When you answer, write just the number.

Example entries and their recorded answers appear below.
{"BINDER": "B8.2.4 TCR mutant β95Q-E (protein) chain 1: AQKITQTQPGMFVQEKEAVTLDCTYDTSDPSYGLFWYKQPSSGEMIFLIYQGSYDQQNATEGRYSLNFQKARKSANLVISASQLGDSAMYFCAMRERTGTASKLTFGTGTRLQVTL chain 2: DVKVTQSSRYLVKRTGEKVFLECVQDMDHENMFWYRQDPGLGLRLIYFSYDVKMKEKGDIPEGYSVSREKKERFSLILESASTNQTSMYLCASSETVPPQHFGDGTRLSIL", "TCR Mut RLU/WT RLU": 0.81}
{"BINDER": "B8.2.4 TCR mutant β95Q-N (protein) chain 1: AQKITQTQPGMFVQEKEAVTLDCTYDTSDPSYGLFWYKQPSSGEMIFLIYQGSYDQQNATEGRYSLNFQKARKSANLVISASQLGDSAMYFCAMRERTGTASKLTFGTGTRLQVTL chain 2: DVKVTQSSRYLVKRTGEKVFLECVQDMDHENMFWYRQDPGLGLRLIYFSYDVKMKEKGDIPEGYSVSREKKERFSLILESASTNQTSMYLCASSNTVPPQHFGDGTRLSIL", "TCR Mut RLU/WT RLU": 0.6}

TCR Mut RLU/WT RLU in this record for B8.2.4 TCR mutant β98P-C (protein) chain 1: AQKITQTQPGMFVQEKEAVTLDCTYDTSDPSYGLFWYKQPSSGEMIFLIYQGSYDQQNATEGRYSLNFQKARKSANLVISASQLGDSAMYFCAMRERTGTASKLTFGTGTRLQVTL chain 2: DVKVTQSSRYLVKRTGEKVFLECVQDMDHENMFWYRQDPGLGLRLIYFSYDVKMKEKGDIPEGYSVSREKKERFSLILESASTNQTSMYLCASSQTVCPQHFGDGTRLSIL : 1.11

Lab note: measured TCR Mut RLU/WT RLU of B8.2.4 TCR mutant β95Q-V (protein) chain 1: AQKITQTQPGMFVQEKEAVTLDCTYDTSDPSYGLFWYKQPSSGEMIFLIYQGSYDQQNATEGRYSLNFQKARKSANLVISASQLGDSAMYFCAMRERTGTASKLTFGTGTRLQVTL chain 2: DVKVTQSSRYLVKRTGEKVFLECVQDMDHENMFWYRQDPGLGLRLIYFSYDVKMKEKGDIPEGYSVSREKKERFSLILESASTNQTSMYLCASSVTVPPQHFGDGTRLSIL was 0.76

Record B8.2.4 TCR mutant β95Q-M (protein) chain 1: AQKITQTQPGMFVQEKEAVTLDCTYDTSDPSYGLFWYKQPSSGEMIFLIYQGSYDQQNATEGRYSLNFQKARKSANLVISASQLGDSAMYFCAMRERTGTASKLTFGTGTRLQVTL chain 2: DVKVTQSSRYLVKRTGEKVFLECVQDMDHENMFWYRQDPGLGLRLIYFSYDVKMKEKGDIPEGYSVSREKKERFSLILESASTNQTSMYLCASSMTVPPQHFGDGTRLSIL . Reported TCR Mut RLU/WT RLU: 0.99
